Catalogue of Ratio readings, one per entry.
# procedure-details: Discrimination ratio against DAT as ratio of IC50 to that of Ki uptake to DAT.
# Type: functional
Just the number.

Completed entries (count: 3):
COc1cccc2c1C(O)(c1ccc(Cl)cc1)N1CCN=C21 (centres undefined): 5.8
Oc1ccc(C2(O)c3ccccc3C3=NCCCN32)cc1 (centres undefined): 0.7
COc1ccc(C2(O)c3ccccc3C3=NCCCN32)cc1 (centres undefined): 0.8

From here, focus on the item given below.
Form field: reported Ratio of OC1(c2ccc3c(c2)OCO3)c2ccccc2C2=NCCCN21 (centres undefined)
0.8

====

# target-of-assay: Sodium-dependent serotonin transporter (Homo sapiens, UniProt P31645)
# Sequence (P31645 whole entry): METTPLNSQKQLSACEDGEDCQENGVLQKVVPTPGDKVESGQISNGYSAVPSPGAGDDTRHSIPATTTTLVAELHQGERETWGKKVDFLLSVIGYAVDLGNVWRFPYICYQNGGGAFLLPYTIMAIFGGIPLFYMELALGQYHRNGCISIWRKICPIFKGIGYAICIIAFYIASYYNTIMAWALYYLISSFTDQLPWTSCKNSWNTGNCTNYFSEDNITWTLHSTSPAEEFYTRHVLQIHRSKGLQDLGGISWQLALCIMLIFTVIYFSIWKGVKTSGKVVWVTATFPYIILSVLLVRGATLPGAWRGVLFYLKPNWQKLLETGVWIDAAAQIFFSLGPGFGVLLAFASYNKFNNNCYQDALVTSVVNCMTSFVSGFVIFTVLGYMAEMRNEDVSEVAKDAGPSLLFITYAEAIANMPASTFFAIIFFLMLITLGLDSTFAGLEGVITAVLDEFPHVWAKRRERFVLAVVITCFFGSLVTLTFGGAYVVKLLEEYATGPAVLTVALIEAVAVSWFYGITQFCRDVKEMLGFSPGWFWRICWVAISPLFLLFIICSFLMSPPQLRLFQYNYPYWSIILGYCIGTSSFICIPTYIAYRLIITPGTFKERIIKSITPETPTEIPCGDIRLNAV
# procedure-details: Inhibition of 5-HT uptake in HEK cells expressing human serotonin transporter (hSERT)
readout-type: IC50
Answer format: value, then unit.

OC1(c2ccc(Cl)cc2)c2cc(Cl)c(Cl)cc2C2=NCCN21 (configuration not stated): 444 nM
COc1cccc2c1C1=NCCN1C2(O)c1ccc(Cl)cc1 (configuration not stated): 280 nM
COc1cccc2c1C(O)(c1ccc(Cl)cc1)N1CCN=C21 (configuration not stated): 3600 nM
Clc1ccc(C2c3ccccc3C3=NCCN32)cc1 (configuration not stated): 15 nM
Oc1ccc(C2(O)c3ccccc3C3=NCCCN32)cc1 (configuration not stated): 60 nM

Form field: reported IC50 of COc1ccc2c(c1)C(O)(c1ccc(Cl)cc1)N1CCN=C21 (configuration not stated)
1960 nM

Another compound to look at: OC1(c2ccccc2)c2ccccc2C2=NCCN21 (configuration not stated)
2140 nM

Another compound to look at: OC1(c2ccc3c(c2)OCO3)c2ccccc2C2=NCCCN21 (configuration not stated)
83 nM

Another compound to look at: OC1(c2ccc(Cl)cc2)c2ccccc2C2=NCCCN21 (configuration not stated)
53 nM

Another compound to look at: COc1ccc(C2(O)c3ccccc3C3=NCCCN32)cc1 (configuration not stated)
94 nM

Another compound to look at: OC1(c2ccc(Cl)cc2)c2ccccc2C2=NCCN21 (configuration not stated)
94 nM

Another compound to look at: OC1(c2ccc(Cl)cc2)c2cccc(F)c2C2=NCCN21 (configuration not stated)
129 nM

====

# target-of-assay: UniProt P23975
# Sequence (P23975 whole entry): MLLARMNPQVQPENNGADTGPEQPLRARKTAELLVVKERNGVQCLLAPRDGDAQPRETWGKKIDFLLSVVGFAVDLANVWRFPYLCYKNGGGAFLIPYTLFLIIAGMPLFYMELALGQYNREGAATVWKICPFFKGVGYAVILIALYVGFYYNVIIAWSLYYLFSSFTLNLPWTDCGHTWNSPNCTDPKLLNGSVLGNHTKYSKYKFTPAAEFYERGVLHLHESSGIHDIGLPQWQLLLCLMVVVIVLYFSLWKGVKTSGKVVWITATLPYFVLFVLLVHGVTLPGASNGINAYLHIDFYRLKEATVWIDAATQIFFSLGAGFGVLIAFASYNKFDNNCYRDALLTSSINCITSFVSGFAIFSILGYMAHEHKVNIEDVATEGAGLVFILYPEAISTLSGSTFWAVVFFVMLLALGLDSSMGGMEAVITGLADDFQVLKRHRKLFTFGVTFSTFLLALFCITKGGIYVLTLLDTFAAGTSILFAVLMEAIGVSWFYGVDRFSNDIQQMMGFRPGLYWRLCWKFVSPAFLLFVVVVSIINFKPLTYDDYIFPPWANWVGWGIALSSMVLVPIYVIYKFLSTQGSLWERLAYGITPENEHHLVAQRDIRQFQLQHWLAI
# procedure-details: Displacement of [125I]RTI-55 from human Norepinephrine transporter expressed in HEK cells
# Format: cell-based, HEK293
pKi: −log10 of the molar value.
Think of 8 as a floor: if pKi stands on it or above, it is True; beneath it, False.

These recorded examples may help you get a feel for the data.
COc1cccc2c1C(O)(c1ccc(Cl)cc1)N1CCN=C21 (stereo unspecified): False
OC1(c2ccc(Cl)cc2)c2cccc(F)c2C2=NCCN21 (stereo unspecified): True
Oc1ccc(C2(O)c3ccccc3C3=NCCCN32)cc1 (stereo unspecified): False
OC1(c2ccccc2)c2ccccc2C2=NCCN21 (stereo unspecified): False

Now for another entry.
Is reported pKi greater than or equal to 8 here: COc1ccc2c(c1)C(O)(c1ccc(Cl)cc1)N1CCN=C21 (stereo unspecified)
False

====

# target-of-assay: Sodium-dependent dopamine transporter (Rattus norvegicus)
# Sequence (P23977 whole entry): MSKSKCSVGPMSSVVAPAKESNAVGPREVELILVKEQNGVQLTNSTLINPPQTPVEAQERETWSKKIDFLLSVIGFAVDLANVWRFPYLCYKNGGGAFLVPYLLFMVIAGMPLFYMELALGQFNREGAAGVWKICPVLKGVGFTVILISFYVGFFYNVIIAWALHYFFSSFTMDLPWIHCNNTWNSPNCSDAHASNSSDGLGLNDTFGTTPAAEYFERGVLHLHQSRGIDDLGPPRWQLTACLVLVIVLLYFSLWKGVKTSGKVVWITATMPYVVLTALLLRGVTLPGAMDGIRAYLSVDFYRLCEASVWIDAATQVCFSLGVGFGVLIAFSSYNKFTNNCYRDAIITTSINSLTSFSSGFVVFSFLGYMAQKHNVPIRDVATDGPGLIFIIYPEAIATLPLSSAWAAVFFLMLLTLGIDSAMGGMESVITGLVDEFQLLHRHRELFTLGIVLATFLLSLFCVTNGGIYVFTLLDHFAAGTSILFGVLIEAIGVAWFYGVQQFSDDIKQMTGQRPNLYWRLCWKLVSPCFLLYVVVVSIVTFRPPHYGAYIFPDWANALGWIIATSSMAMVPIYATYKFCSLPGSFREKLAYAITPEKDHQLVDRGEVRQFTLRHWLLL
readout-type: IC50 (µM)
# number only, unit µM dropped from output

C=CCOc1cccc(C2(O)c3ccccc3C3=NCCCN32)c1 (stereo not drawn): 0.219
COC1(c2ccc(Cl)cc2)c2ccccc2C2=NCCN21 (stereo not drawn): 1.01

From here, focus on the item given below.
Form field: reported IC50 of OC1(c2ccc3c(c2)OCO3)c2ccccc2C2=NCCCN21 (stereo not drawn)
0.00194
